Molecular target: 72 kDa type IV collagenase (Homo sapiens)
Sequence (P08253 whole entry): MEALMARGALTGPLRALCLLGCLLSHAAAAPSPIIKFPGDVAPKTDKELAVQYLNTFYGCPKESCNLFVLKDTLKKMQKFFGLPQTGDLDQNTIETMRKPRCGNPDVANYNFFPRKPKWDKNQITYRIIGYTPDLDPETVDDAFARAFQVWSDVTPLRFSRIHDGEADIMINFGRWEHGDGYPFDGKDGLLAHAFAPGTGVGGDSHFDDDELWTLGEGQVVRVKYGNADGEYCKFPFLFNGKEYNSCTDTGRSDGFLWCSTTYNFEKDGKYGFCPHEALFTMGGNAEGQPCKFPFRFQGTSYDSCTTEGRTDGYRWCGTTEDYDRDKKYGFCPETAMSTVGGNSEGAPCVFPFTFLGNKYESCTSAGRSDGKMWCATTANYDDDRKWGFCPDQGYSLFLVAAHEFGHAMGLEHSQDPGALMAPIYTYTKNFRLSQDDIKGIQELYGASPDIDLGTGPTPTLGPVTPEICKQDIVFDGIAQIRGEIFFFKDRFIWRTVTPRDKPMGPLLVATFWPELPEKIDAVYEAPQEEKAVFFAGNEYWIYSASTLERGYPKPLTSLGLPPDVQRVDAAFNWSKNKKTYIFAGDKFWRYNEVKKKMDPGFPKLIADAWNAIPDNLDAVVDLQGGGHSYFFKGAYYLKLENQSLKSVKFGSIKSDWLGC
assay-endpoint: Ki (nM)

Consider the worked cases shown below.
1. NC(=O)C(Cc1c[nH]c2ccccc12)NC(=O)C(CCCc1ccccc1)CP(=O)(O)C(Cc1ccccc1)NC(=O)c1cc2cc(Cl)cc(Cl)c2oc1=O (configuration not stated) : 100
2. NC(=O)C(Cc1c[nH]c2ccccc12)NC(=O)C(CCCc1ccccc1)CP(=O)(O)C(Cc1ccccc1)NC(=O)CNc1cc(Cl)ccc1O (configuration not stated) : 30
3. CC(C)CC(NC(=O)OCc1ccccc1)C(=O)NC(Cc1ccccc1)P(=O)(O)CC(CCCc1ccccc1)C(=O)NC(Cc1c[nH]c2ccccc12)C(N)=O (configuration not stated) : 40
4. CC(C)CC(CP(=O)(O)C(Cc1ccccc1)NC(=O)OCc1ccccc1)C(=O)NC(Cc1c[nH]c2ccccc12)C(N)=O (configuration not stated) : 202
5. NC(=O)C(Cc1c[nH]c2ccccc12)NC(=O)C(CCCc1ccccc1)CP(=O)(O)C(Cc1ccccc1)NC(=O)CNc1ccccc1 (configuration not stated) : 17

I. COc1ccc(CSCC(CP(=O)(O)C(Cc2ccccc2)NC(=O)OCc2ccccc2)C(=O)NC(Cc2c[nH]c3ccccc23)C(N)=O)cc1 (configuration not stated)
II. NC(=O)C(Cc1c[nH]c2ccccc12)NC(=O)C(CCCc1ccccc1)CP(=O)(O)C(Cc1ccccc1)NC(=O)c1ccc2ccccc2n1 (configuration not stated)
Ask: Decide: I or II , by lowest recorded Ki. Refer to your chosen entry by its label in the reply.
Result: I
(I: 6 nM, II: 19 nM)
